system: EKVX; experiment: NCI tumour cell line growth inhibition, 48 h
Calls of active or inactive are those of the source. No stated cut-off is given here; in the data, active = GI50 up to about 1.1 µM and inactive = higher. Non-standard residues stand in square brackets, D forms with d. Residues, ends and D or L forms follow the SMILES beside them. *: point of attachment. Ac5c = NC1(C(=O)O)CCCC1; Cbz = O=C(OCc1ccccc1)*; Boc = CC(C)(C)OC(=O)*; tBu = CC(C)(C)*
Parameter call: string, one of Y = active, N = inactive

Sample answers from the record:
molecule	target_of_assay	answer_label
COc1cc([C@@H]2c3cc4c(cc3[C@@H](NCc3cccc(C#N)c3)C3COC(=O)[C@@H]32)OCO4)cc(OC)c1O (stereo partly drawn)	EKVX	N
N#CC(C(=O)CCC(=O)Nc1cccc(C(F)(F)F)c1)c1ccc(Cl)cc1 (stereo not drawn)	EKVX	N
COC(=O)CCC(NC(=S)N/N=C(\C)c1cccs1)C(=O)OC (stereo not drawn)	EKVX	N

Input line: Given CCOC(=O)C1C(=O)C=C(c2cc(C)ccc2O)CC1c1cccc(Cl)c1 (stereo not drawn) , state the outcome it received in this test.
Output line: N

Input line: Subsequent entry: `C/C=C/[P+](c1ccccc1)(c1ccccc1)c1ccccc1`
Output line: Y

Input line: Subsequent entry: `CN(C)c1ccc(/C=C(\C#N)C(N)=C(C#N)C#N)cc1`
Output line: N

Input line: Subsequent entry: COC(=O)C1(NC(=O)C(Cc2ccccc2)NC(=O)C(NC(=O)C(CCCCNC(=O)OC(C)(C)C)NC(=O)C(Cc2c[nH]c3ccccc23)NC(=O)C(Cc2ccccc2)NC(=O)OCc2ccccc2)C(C)OC(C)(C)C)CCCC1 (stereo not drawn) (Cbz-FWK(Boc)T(tBu)F[Ac5c]-OMe; configuration not given here)
Output line: N

Input line: Subsequent entry: `COc1ccc(-c2oc3cc(OC(C)=O)cc(OC(C)=O)c3c(=O)c2OC)cc1`
Output line: N

====

test system: PC-3; test: NCI tumour cell line growth inhibition, 48 h
Calls of active or inactive are those of the source. Cut-off read from the data, not from the text of the source: active = GI50 up to about 1.1 µM and inactive = higher.
Parameter call: string, one of yes (active), no (inactive)

Sample answers from the record:
molecule	answer_label
C=C1C(=O)O[C@@H]2/C=C(/C)[C@@H](OC(C)=O)C[C@@H](O)/C(C)=C\[C@@H](OC(=O)[C@]3(C)O[C@@H]3C)[C@@H]12	no
Cc1nc2[nH]ncn2c(=O)c1CCCl	no
O=C1C=CN(C2OC(CO)C(O)C2O)C(=O)C1 (stereo not drawn)	no
NC(CCCCCP(=O)(O)O)C(=O)O (stereo not drawn) [AP-7]	no
NC(=O)c1ccc[n+](C2=C([N-]S(=O)(=O)c3ccccc3)C(=O)c3ccccc3C2=O)c1	no

Input line: Given `CCOP(=O)(O)CN1CCNCCN(CP(=O)(O)OCC)CCNCC1` , state the outcome it received in this test.
Output line: no

Input line: Subsequent entry: CC(=O)OC(C)(C)CCC(=O)[C@](C)(O)[C@H]1[C@H](O)C[C@@]2(C)[C@@H]3CC=C4C(C)=C(OC5OC(CO)C(O)C(O)C5O)C(=O)C[C@@H]4[C@]3(C)C(=O)C[C@]12C (stereo partly drawn)
Output line: no

Input line: Subsequent entry: `O=S(=O)(Cc1nc2ccccc2s1)c1nc2ccccc2s1`
Output line: no

Input line: Subsequent entry: CCOC(=O)C1C(=O)CC(O)(c2ccccc2)C(C(=O)OCC)C1c1ccc(N(C)C)cc1 (stereo not drawn)
Output line: no

Input line: Subsequent entry: `O=[N+]([O-])c1ccc(-c2cn(-c3ccc(Cl)cc3)cn2)cc1`
Output line: no

Input line: Subsequent entry: CCC1(c2ccc(OC)c(OC)c2)CCN2C(=O)C(O)CC21 (stereo not drawn)
Output line: no

Input line: Subsequent entry: CCCCCCCCCCCCCCCCCC(=O)OCC(COC1OC(CS(=O)(=O)O)C(O)C(O)C1O)OC(=O)CCCCCCCCCCCCCCCCC (stereo not drawn)
Output line: no

Input line: Subsequent entry: `CCOc1ccc2nc3cc(/N=N/c4ccc(N)nc4N)ccc3c(N)c2c1`
Output line: no

Input line: Subsequent entry: `Cn1cc(S(=O)(=O)NC(=O)Nc2ccc(Cl)cc2)c2ccccc21`
Output line: no

Input line: Subsequent entry: `Sc1nc2c(c(-c3nc(S)nc4c3CCCCCCCCCC4)n1)CCCCCCCCCC2`
Output line: no

Input line: Subsequent entry: C[C@@H]1C[C@H](O)[C@]2(O)O[C@@H]3C[C@@]4(C=O)[C@@H](CC[C@@H]5[C@@H]4CC[C@]4(C)[C@@H](C6=CC(=O)OC6)CC[C@]54O)C[C@H]3O[C@@H]2O1 [CALOTROPIN]
Output line: yes

Input line: Subsequent entry: c1ccc2c(C3CCN(CCN4CCOCC4)C3)c[nH]c2c1 (stereo not drawn)
Output line: no

Input line: Subsequent entry: `Cc1cc(NN)nc2[nH]nc(N)c12`
Output line: no
